# Test system: récepteurs surrénaliens de l'angiotensine II
# test-summary: Displacement of radioligand [125I]-SIAII specifically bound to adrenal angiotensin II receptors (rat adrenal homogenate)
# Format: binding
# stated-conditions: competitor 1E-5 M, 60 min, 25°C, 10 µM
% de déplacement du ligand marqué strictly less than 80% = label 1. Otherwise label 0.

test-smiles	label
CCCCc1nn(C)c(OCC(=O)O)c1Cc1ccc(-c2ccccc2C(=O)O)cc1	label 1
CCCCc1nn(CC(F)(F)F)c(COC)c1Cc1ccc(-c2ccccc2-c2nnn[nH]2)cc1	label 1
CCCc1nn(CC(F)(F)F)c(OCC(=O)OC)c1Cc1ccc(NC(=O)c2c(Cl)ccc(Cl)c2C(=O)O)cc1	label 0
CCCc1nn(C)c(OCC(=O)OCC)c1Cc1ccc(NC(=O)c2c(Cl)ccc(Cl)c2C(=O)O)cc1	label 0
CCCCc1nn(C)c(O)c1Cc1ccc(NC(=O)c2c(Cl)ccc(Cl)c2C(=O)O)cc1	label 0
CCCc1nn(CC(F)(F)F)c(O)c1Cc1ccc(-c2ccccc2-c2nnn[nH]2)cc1	label 1

For this compound, is % de déplacement du ligand marqué lower than 80%? CCCc1nn(C)c(OCC(=O)OC)c1Cc1ccc(-c2ccccc2NS(=O)(=O)C(F)(F)F)cc1
label 1

For this compound, is % de déplacement du ligand marqué lower than 80%? CCCc1nn(CC(F)(F)F)c(OCCO)c1Cc1ccc(NC(=O)c2ccccc2S(=O)(=O)O)cc1
label 0

For this compound, is % de déplacement du ligand marqué lower than 80%? CCCc1n[nH]c(COC)c1Cc1ccc(NC(=O)c2ccccc2S(=O)(=O)O)cc1
label 0

* * *

# Tested on: récepteurs surrénaliens de l'angiotensine II
# test-summary: Displacement of radioligand [125I]-SIAII specifically bound to adrenal angiotensin II receptors (rat adrenal homogenate)
# Format: binding
# stated-conditions: competitor 1E-7 M, 60 min, 25°C, 0.1 µM
Entries and their % de déplacement du ligand marqué
Reply numerically in %, unit not repeated.

These solved cases illustrate the format of a correct answer.
compound	recorded-metric	endpoint-value
CCCc1nn(C)c(OCC(=O)N2CCN(c3ccccc3OC)CC2)c1Cc1ccc(NC(=O)c2ccccc2S(=O)(=O)O)cc1 [Exemple 66]	% de déplacement du ligand marqué	63
CCCc1nn(C)c(OC(=O)N(CC)CC)c1Cc1ccc(NC(=O)c2ccccc2S(=O)(=O)O)cc1 [Exemple 57]	% de déplacement du ligand marqué	60
CCCc1nn(C)c(OC(=O)N(C)C)c1Cc1ccc(NC(=O)c2ccccc2S(=O)(=O)O)cc1 [Exemple 54]	% de déplacement du ligand marqué	62
CCCc1nn(C)c(CO)c1Cc1ccc(NC(=O)c2ccccc2S(=O)(=O)O)cc1 [Exemple 115]	% de déplacement du ligand marqué	57
CCCCc1nn(CC(F)(F)F)c(OCC(=O)OCC)c1Cc1ccc(-c2ccccc2-c2nn[nH]n2)cc1 [Exemple 78]	% de déplacement du ligand marqué	58
CCCCc1nn(C)c(OCC(=O)N2CCOCC2)c1Cc1ccc(NC(=O)c2ccccc2NS(=O)(=O)C(F)(F)F)cc1 [Exemple 130]	% de déplacement du ligand marqué	33
CCCc1nn(C)c(OCC(=O)OCC)c1Cc1ccc(-c2ccccc2-c2nnn[nH]2)cc1 [Exemple 70]	% de déplacement du ligand marqué	49
CCCc1nn(C)c(OCC(=O)OC)c1Cc1ccc(-c2ccccc2NS(=O)(=O)C(F)(F)F)cc1 [Exemple 135]	% de déplacement du ligand marqué	34
CCCc1nn(CC(F)(F)F)c(O)c1Cc1ccc(-c2ccccc2-c2nnn[nH]2)cc1 [Exemple 74]	% de déplacement du ligand marqué	58
CCCCc1nn(CC(F)(F)F)c(COC)c1Cc1ccc(-c2ccccc2-c2nnn[nH]2)cc1 [Exemple 119]	% de déplacement du ligand marqué	54

Reported % de déplacement du ligand marqué for récepteurs surrénaliens de l'angiotensine II, given CCCCc1nn(CC(F)(F)F)c(OC(=O)N(C)C)c1Cc1ccc(-c2ccccc2-c2nn[nH]n2)cc1 [Exemple 80] ?
48

Reported % de déplacement du ligand marqué for récepteurs surrénaliens de l'angiotensine II, given CCCc1nn(C)c(OCCO)c1Cc1ccc(-c2ccccc2C(=O)O)cc1 [Exemple 137] ?
5

Reported % de déplacement du ligand marqué for récepteurs surrénaliens de l'angiotensine II, given CCCc1nn(CC(F)(F)F)c(OC(=O)N(C)C)c1Cc1ccc(NC(=O)c2ccccc2S(=O)(=O)O)cc1 [Exemple 60] ?
49

Reported % de déplacement du ligand marqué for récepteurs surrénaliens de l'angiotensine II, given CCCc1nn(CC(=O)OCC)c(OCC(=O)OCC)c1Cc1ccc(NC(=O)c2c(Cl)ccc(Cl)c2C(=O)O)cc1 [Exemple 44] ?
9

Reported % de déplacement du ligand marqué for récepteurs surrénaliens de l'angiotensine II, given CCCCc1nn(C)c(OCC(=O)OCC)c1Cc1ccc(-c2ccccc2-c2nn[nH]n2)cc1 [Exemple 90] ?
40
